Molecular target: UGT2B7 (Homo sapiens, UniProt P16662)
Sequence (P16662 24-529): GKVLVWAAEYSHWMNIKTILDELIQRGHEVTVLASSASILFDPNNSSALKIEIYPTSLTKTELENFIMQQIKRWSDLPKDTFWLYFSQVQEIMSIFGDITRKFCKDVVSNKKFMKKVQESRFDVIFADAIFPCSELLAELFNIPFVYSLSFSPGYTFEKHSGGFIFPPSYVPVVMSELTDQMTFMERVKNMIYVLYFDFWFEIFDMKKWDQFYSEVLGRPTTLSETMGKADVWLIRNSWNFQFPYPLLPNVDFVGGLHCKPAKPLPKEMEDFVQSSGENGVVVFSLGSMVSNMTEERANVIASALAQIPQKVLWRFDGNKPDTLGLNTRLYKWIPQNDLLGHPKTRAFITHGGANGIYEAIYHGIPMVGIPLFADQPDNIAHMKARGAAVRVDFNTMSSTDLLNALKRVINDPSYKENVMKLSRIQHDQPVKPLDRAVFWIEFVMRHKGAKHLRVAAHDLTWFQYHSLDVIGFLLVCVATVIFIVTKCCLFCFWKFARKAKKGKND
Assay: Ki assays / kinetics and inhibition type, UGT2B7 (Example 1)
Conditions: human
QUANTITY: Km (µM)

> print(dat)
                                   compound  quantity  measurement.units  observed
1  CCCCC/C=C\C/C=C\CCCCCCCC(=O)O [Linoleic Acid, reference compound]        Km                 µM       160

====

Molecular target: UGT1A10 (Homo sapiens, UniProt Q9HAW8)
Sequence (Q9HAW8 26-530): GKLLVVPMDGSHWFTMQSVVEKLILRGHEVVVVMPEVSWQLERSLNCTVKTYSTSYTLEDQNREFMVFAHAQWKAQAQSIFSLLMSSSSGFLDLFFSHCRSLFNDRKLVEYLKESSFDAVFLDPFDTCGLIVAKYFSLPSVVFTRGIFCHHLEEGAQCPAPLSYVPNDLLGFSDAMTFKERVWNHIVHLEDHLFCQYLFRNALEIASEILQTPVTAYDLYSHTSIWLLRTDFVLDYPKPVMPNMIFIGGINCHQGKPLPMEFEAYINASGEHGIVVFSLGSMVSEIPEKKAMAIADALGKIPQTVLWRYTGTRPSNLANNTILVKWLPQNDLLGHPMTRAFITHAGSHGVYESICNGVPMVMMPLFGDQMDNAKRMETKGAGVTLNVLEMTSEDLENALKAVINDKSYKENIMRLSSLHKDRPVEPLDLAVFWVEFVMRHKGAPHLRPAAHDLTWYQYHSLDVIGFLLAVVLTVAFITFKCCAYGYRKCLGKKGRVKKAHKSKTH
Assay: Ki assays / kinetics and inhibition type, UGT1A10 (Example 1)
Conditions: read-out: Kiapp (UDP-GlcUA), UDP-GlcUA varied, 7-OH warfarin
pKi: −log10 of the molar value.
QUANTITY: pKi

> print(dat)
                                   molecule                           target.entity  quantity  observed
1  CCCCCCCCCC(=O)NC(COC(=O)NS(=O)(=O)OCC1OC(n2ccc(=O)[nH]c2=O)C(O)C1O)Cc1ccccc1 (stereo not shown) [PP55B]  UGT1A10 (Homo sapiens, UniProt Q9HAW8)       pKi      5.39

====

Biological target: UGT1A10 (Homo sapiens, UniProt Q9HAW8)
Experiment: Ki assays / kinetics and inhibition type, UGT1A10 (Example 1)
Details: read-out: Ki′app (UDP-GlcUA), UDP-GlcUA varied, E2
pKi: −log10 of the molar value.
QUANTITY: pKi

> print(dat)
                                   compound  observed
1  CCCCCCCCCC(=O)NC(COC(=O)NS(=O)(=O)OCC1OC(n2ccc(=O)[nH]c2=O)C(O)C1O)Cc1ccccc1 (stereo not shown) [PP55B]      4.64

====

Molecular target: UGT1A10 (Homo sapiens, UniProt Q9HAW8)
Assay: IC50 assays, inhibition of UGT1A10 glucuronidation (Example 1)
Assay type: biochemical
Set-up: His; made in house; host or cells: baculovirus-infected Sf9 insect cells
Settings: co-substrate ~2 x Km, 8-OH warfarin in excess, read-out: IC50 (UDP-GlcUA)
Text: Synthesis of inhibitors was described previously (2).
pIC50: −log10 of the molar value.
QUANTITY: pIC50

> print(dat)
                                   compound  observed
1  CCCCCCCCCC(=O)NC(COC(=O)NS(=O)(=O)OCC1OC(n2ccc(=O)[nH]c2=O)C(O)C1O)Cc1ccccc1 (stereo not shown) [PP55B]      4.85

====

Target: UGT1A10 (Homo sapiens)
Experiment: Ki assays / kinetics and inhibition type, UGT1A10 (Example 1)
Conditions: read-out: Ki′app (Substrate), E2 varied
QUANTITY: Ki (µM)

> print(dat)
                                   compound           target.entity  measurement.units  observed
1  CCCCCCCCCC(=O)NC(COC(=O)NS(=O)(=O)OCC1OC(n2ccc(=O)[nH]c2=O)C(O)C1O)Cc1ccccc1 (stereo not shown) [PP55B]  UGT1A10 (Homo sapiens)                 µM        43

====

Molecular target: UGT1A10 (Homo sapiens, UniProt Q9HAW8)
Experiment: IC50 assays, inhibition of UGT1A10 glucuronidation (Example 1)
Assay type: biochemical
Design: His; made in house; host or cells: baculovirus-infected Sf9 insect cells
Details: E2, estimation, some activation at low concentrations, read-out: IC50 (Substrate)
QUANTITY: IC50

> print(dat)
                                   compound  observed
1  CCCCCCCCCC(=O)NC(COC(=O)NS(=O)(=O)OCC1OC(n2ccc(=O)[nH]c2=O)C(O)C1O)Cc1ccccc1 (stereo not shown) [PP55B]   ~200 µM
